A collection of compounds and their measured growth
# Tested on: SNB-19 CNS
# ASSAY PROCEDURE: NCI-60 one-dose screen, 48 h (100 = growth as untreated, 0 = no growth, -100 = all killed)
# EXPERIMENTAL PARAMETERS: 10 µM unless noted
Compounds without any hit were thinned out: in the full panel of roughly 83,000, 20% have a hit.
A number alone suffices; assume %.

• Cc1c(O)ccc(SC#N)c1C = 96.5

Request: Need growth of COc1ccc2nc3cc([N+](=O)[O-])ccc3c(NNc3ccccc3)c2c1 , thanks.
Result: 73

Request: Can you share its growth? I mean this compound: CCCN(CCC)C(=O)c1ccc(C)cc1
Result: 98.2

Request: I am curious: what growth value has been reported for O=C(/C=C/c1ccccc1)c1ccccc1O ?
Result: 80.1

Request: growth lookup needed for COc1cc([C@@H]2c3cc4c(cc3[C@H](OC3OC5COC(c6ccccc6)OC5C(O)C3O)[C@H]3COC(=O)[C@H]23)OCO4)cc(OC)c1OC (stereo partly specified) , thanks.
Result: 79.9

Request: // lookup growth for O=C1C=CC(=O)N1c1ccc(O)cc1
Result: 103

----------
# Tested on: HCT-15 colon
# ASSAY PROCEDURE: NCI-60 one-dose screen, 48 h
# EXPERIMENTAL PARAMETERS: 10 µM unless noted
About 83,000 compounds went through this panel and 20% of them were active in at least one assay; those are over-represented in the sample as a whole. Active and inactive are the calls of the source. Rule for the calls: active = growth percent below 10; inactive = the rest.
Respond with a class label; see active, inactive

* O=C1c2ccccc2C(=O)c2c(O)c(Cl)cc(O)c21 | inactive
* Oc1ccc(Cl)cc1C(c1cc(Cl)ccc1O)C(Cl)(Cl)Cl | active
* Cc1nn(CCO)c(C)c1N=[N+]([O-])c1c(C)nn(CCO)c1C | active
* O=C(NOC(=O)c1ccccc1)c1ccccc1 | inactive
* S=C1SCN(Cc2cccs2)CN1Cc1cccs1 | inactive

Here is the next item to consider.
Request: Per the assay record, what outcome was assigned to Nc1nc(-c2ccccc2)nc(N)c1N=O ?
Result: inactive

----------
# Tested on: OVCAR-4 ovarian
# ASSAY PROCEDURE: NCI-60 one-dose screen, 48 h (100 = growth as untreated, 0 = no growth, -100 = all killed)
# EXPERIMENTAL PARAMETERS: 10 µM unless noted
# Method: Growth inhibition of the OVCAR-4 human tumor cell line is measured as a screen for anti-cancer activity. Cells are grown in 96 well plates and exposed to the test compound for 48 hours. Compounds are tested at a single concentration, which is 10^-5 M for most compounds. The reported endpoint is percent growth (GI% or GIPRCNT), where numbers from 0 - 100% represent growth inhibition, and numbers from -100% - 0 represent cell death. For example, a value of 40 represents 60% growth inhibition. […]
This is part of a sample that, as a whole, favours compounds with a hit. Of some 83,000 tested, about 20% had one in any assay.
Binned growth; ranges: bottom range: < 40%; center range: ≥ 40% and < 90%; top range: ≥ 90%

Please review the following examples before continuing.
- CCCCCCCCCCCCNCCCc1ccccc1: center range
- CCCN(CCC)C(=O)c1ccc(C)cc1: top range
- COC1=CC(=O)c2c(O)c3c(c(O)c2C1=O)CC(C)(O)OC3 (stereo not given): bottom range
- Oc1c(Cl)cc(Cl)cc1C(c1cc(Cl)cc(Cl)c1O)C(Cl)(Cl)Cl: bottom range
- Cc1ccc(NC2=CC(=O)C(=O)c3ccccc32)cc1: bottom range
- Cn1c(-c2ccccc2)c(/C=C/C2=[N+](C)c3ccccc3C2(C)C)c2ccccc21: bottom range
- COC(=O)c1ccc(=O)c2nc3/c(=C/O)c(O)cc(=O)c3[nH]c12: center range
- CCOc1ccc(Nc2nc3c(s2)C(=O)c2ccccc2C3=O)cc1: center range

Request: Looking at O=C(O)c1ccc2c(c1)C(=O)c1ccccc1C2=O , which class would you pick?
Result: top range

Request: Entry CC1CC(C)(C)OB(OC(C)CC(C)(C)OB2OC(C)CC(C)(C)O2)O1 (stereo not given) belongs to which category?
Result: top range

Request: Just checking, what class would you give CCCCCCCCCCCC(=O)OC(C)C(=O)NCCCC (stereo not given) here?
Result: top range

Request: # bin label for Cc1ccc(/C=C2\CNC/C(=C\c3ccc(C)cc3)C2=O)cc1
Result: bottom range

Request: Input CN1CCC(c2ccccc2)(c2ccccc2)C(=O)C1 ; output its category
Result: center range
